Values compiled from PubChem BioAssay AID376.

TARGET_SYSTEM: Voltage-gated inwardly rectifying potassium channel KCNH2 (Homo sapiens) (UniProt Q12809)
Sequence (Q12809 whole entry, looked up): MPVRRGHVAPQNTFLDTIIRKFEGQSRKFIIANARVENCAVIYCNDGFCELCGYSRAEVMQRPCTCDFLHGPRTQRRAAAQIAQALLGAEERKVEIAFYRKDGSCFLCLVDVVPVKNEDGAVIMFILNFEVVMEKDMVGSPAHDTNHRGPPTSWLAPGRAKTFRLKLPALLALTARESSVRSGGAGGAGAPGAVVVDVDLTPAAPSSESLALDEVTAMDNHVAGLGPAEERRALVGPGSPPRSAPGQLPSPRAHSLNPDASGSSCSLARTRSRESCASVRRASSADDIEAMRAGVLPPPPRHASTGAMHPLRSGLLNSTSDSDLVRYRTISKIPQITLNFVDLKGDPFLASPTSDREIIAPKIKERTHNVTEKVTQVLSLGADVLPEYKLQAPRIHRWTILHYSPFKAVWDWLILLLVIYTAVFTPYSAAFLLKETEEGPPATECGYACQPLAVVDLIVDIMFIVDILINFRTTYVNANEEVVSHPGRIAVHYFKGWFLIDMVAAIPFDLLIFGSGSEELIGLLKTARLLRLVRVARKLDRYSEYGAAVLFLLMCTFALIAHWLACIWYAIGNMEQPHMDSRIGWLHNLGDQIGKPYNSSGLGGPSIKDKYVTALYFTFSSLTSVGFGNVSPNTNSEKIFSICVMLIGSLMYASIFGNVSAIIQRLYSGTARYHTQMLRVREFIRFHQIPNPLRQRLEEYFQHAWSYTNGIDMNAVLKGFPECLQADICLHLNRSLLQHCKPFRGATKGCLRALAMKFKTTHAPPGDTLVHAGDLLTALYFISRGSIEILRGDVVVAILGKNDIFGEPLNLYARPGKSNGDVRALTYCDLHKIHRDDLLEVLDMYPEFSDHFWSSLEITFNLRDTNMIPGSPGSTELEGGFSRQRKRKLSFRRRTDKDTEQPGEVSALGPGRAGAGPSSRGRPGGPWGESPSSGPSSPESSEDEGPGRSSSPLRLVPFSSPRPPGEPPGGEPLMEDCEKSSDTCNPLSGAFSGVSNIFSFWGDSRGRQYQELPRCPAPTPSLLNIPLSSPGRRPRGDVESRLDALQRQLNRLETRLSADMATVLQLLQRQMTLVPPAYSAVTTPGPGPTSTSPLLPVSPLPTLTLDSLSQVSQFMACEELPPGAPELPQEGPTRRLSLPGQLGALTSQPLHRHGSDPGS
ASSAY_COMMENT: KCNH2 potassium channel function modulators, cell-based (AID 376);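 further: 0% = buffer alone and 100% = reference blocker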
EXPERIMENTAL_SETUP: hERG-expressing cells, channel activity single-concentration screen; concentration not given here
Screen size: about 2,000 compounds; about 250 (12%) were called active. No stated cut-off is given here; in the data, active means hERG blockade below about -20% or above about 20%; inactive means in between. This excerpt belongs to a sample that is enriched for actives.
Could you please pick one outcome from this set? 1 = active, 0 = inactive

Exercise: # fetch the recorded call for C[N+]1(C)CCOC(O)(c2ccccc2)C1 (centres undefined) here
Solution: 0

Exercise: # fetch the recorded call for Clc1nc(NCCc2ccccc2)c2ncn(-c3ccccc3)c2n1 here
Solution: 1

Exercise: # fetch the recorded call for CC1=CC(C)(C)Nc2ccc(CSc3ccccc3)cc21 here
Solution: 0

Exercise: # fetch the recorded call for NC(Cc1cccnn1)C(=O)O (centres undefined) here
Solution: 0

Exercise: # fetch the recorded call for NS(=O)(=O)c1ccc(N=Nc2c[nH]c(=O)c(O)c2)cc1 here
Solution: 0

Exercise: # fetch the recorded call for COc1ccc(-c2cc(C(O)C3CCCCN3)c3ccccc3n2)cc1 (centres undefined) here
Solution: 1

Exercise: # fetch the recorded call for C[N+](C)([O-])Cc1cc(-c2ccccc2)ccc1O here
Solution: 0

Exercise: # fetch the recorded call for COc1ccc2nc3cc(Cl)ccc3c(Nc3ccc(O)c(CN4CCN(C)CC4)c3)c2c1 here
Solution: 1

Exercise: # fetch the recorded call for O=C(O)C=CC(=O)Nc1cccc2c1-c1ccccc1C2=O here
Solution: 0

Exercise: # fetch the recorded call for Cn1cnc([N+](=O)[O-])c1SCC(=O)O here
Solution: 0

Exercise: # fetch the recorded call for CN(C)CC(C)(C)CN1c2ccccc2Sc2ccccc21 here
Solution: 1

Exercise: # fetch the recorded call for NS(=O)(=O)c1ccc(N=Nc2ccc[nH]c2=O)cc1 here
Solution: 0

Exercise: # fetch the recorded call for Nc1nc(Sc2ccc([N+](=O)[O-])c3nonc23)c2[nH]cnc2n1 here
Solution: 1

Exercise: # fetch the recorded call for O=S(=O)(O)CCCc1cccc2ccccc12 here
Solution: 0

Exercise: # fetch the recorded call for O=S(=O)(c1ccc(Br)cc1)N1CCN(S(=O)(=O)c2ccc(Br)cc2)CC1 here
Solution: 0

Exercise: # fetch the recorded call for Cc1ncn(-c2ccccc2O)c1C here
Solution: 0

Exercise: # fetch the recorded call for Nc1nc(-c2ccc3ccccc3c2)cc(-c2cc(-c3ccc4ccccc4c3)nc(N)n2)n1 here
Solution: 0

Exercise: # fetch the recorded call for CN1CC(c2ccccc2)C(O)(C2(c3ccccc3)CN(C)CC(c3ccccc3)C2=O)C(c2ccccc2)C1 (centres undefined) here
Solution: 1

Exercise: # fetch the recorded call for Cc1cc(Cl)ccc1OCC(=O)Oc1c(Cl)c(Cl)c(Cl)c(Cl)c1Cl here
Solution: 0

Exercise: # fetch the recorded call for N#CC(C#N)=CNCCN1CCN(C=C(C#N)C#N)CC1 here
Solution: 0

Exercise: # fetch the recorded call for N#CC(N=Nc1ccccc1C(=O)O)C(N)=O (centres undefined) here
Solution: 0

Exercise: # fetch the recorded call for O=C(O)CSc1ccc(N=C=S)cc1 here
Solution: 0

Exercise: # fetch the recorded call for O=C(O)c1ccccc1C(=O)c1ccc2c(c1)Cc1ccccc1-2 here
Solution: 0

Exercise: # fetch the recorded call for OC(CNc1ccccn1)c1ccccc1 (centres undefined) here
Solution: 0

Exercise: # fetch the recorded call for OC(c1cc(C(F)(F)F)nc2c(Cl)cc(Cl)cc12)C1CCCCN1 (centres undefined) here
Solution: 1

Exercise: # fetch the recorded call for NCCSCC(N)C(=O)O (centres undefined) here
Solution: 0

Exercise: # fetch the recorded call for O=C1c2ccccc2C(=O)c2c(Nc3ccc4c5c(cccc35)C(=O)c3ccccc3-4)cccc21 here
Solution: 0

Exercise: # fetch the recorded call for O=C1c2ccccc2C(=O)c2c(NC(=O)c3ccc4c5c(ncnc35)-c3ccccc3C4=O)cccc21 here
Solution: 0

Exercise: # fetch the recorded call for ON(CCc1ccncc1)Cc1ccccc1 here
Solution: 0

Exercise: # fetch the recorded call for CC(C)C(=O)Cc1ccc2ccccc2n1 here
Solution: 0

Exercise: # fetch the recorded call for Cc1cc(C)c2nc3c(c(C(O)C4CCCCN4)c2c1)CCC3=Cc1ccc(Cl)cc1 (centres undefined) here
Solution: 0

Exercise: # fetch the recorded call for C[N+](C)(C)CCN[N+]1(C)CCCc2ccccc21 (centres undefined) here
Solution: 0

Exercise: # fetch the recorded call for OC(CC1CCCCN1)c1ccc2c(c1)oc1ccccc12 (centres undefined) here
Solution: 0

Exercise: # fetch the recorded call for Cc1ccc(CSC(N)=Nc2ccccc2)cc1C here
Solution: 0

Exercise: # fetch the recorded call for CC(CCN)(CCN)[N+](=O)[O-] here
Solution: 0

Exercise: # fetch the recorded call for NCCNCC1CCNCC1 here
Solution: 0

Exercise: # fetch the recorded call for CC(NC(=O)c1ccccc1)(C(=O)O)C(=O)O here
Solution: 0

Exercise: # fetch the recorded call for Cn1c(=O)c2[nH]c(N=NN3CCN(CCO)CC3)nc2n(C)c1=O here
Solution: 0

Exercise: # fetch the recorded call for Oc1cc(O)c2c(c1)OC(c1ccc(O)c(O)c1)C(O)C2c1c(O)cc(O)c2c1OC(c1ccc(O)c(O)c1)C(O)C2 (centres undefined) here
Solution: 0

Exercise: # fetch the recorded call for NC(N)=NC(N)=Nc1c(F)c(F)c(F)c(F)c1F here
Solution: 1

Exercise: # fetch the recorded call for O=C(O)CSc1ncccc1[N+](=O)[O-] here
Solution: 1

Exercise: # fetch the recorded call for Cc1ccc(C(C#N)=Cc2cccc([N+](=O)[O-])c2)cc1 here
Solution: 0

Exercise: # fetch the recorded call for Cn1c(N)c(N=Nc2ccc(S(N)(=O)=O)cc2)c(=O)n(C)c1=O here
Solution: 1

Exercise: # fetch the recorded call for COC(=O)c1cc(-c2ccc3ccccc3c2)[nH]c(=O)c1C#N here
Solution: 0

Exercise: # fetch the recorded call for c1ccc(SC(Sc2ccccc2)c2ccc3c(c2)OCO3)cc1 here
Solution: 0

Exercise: # fetch the recorded call for O=CNc1ncn[nH]1 here
Solution: 0

Exercise: # fetch the recorded call for NC(N)=NC(N)=Nc1ccccc1 (tested in a mixture with another compound) here
Solution: 0

Exercise: # fetch the recorded call for c1ccc(CCCNc2nnnc3ccccc23)cc1 here
Solution: 0

Exercise: # fetch the recorded call for CC(C)(C)c1ccc(OCC(=O)O)c(Cl)c1 here
Solution: 0
